Where do these numbers come from? They come from patent US20260098080A1.

biological target: rat MASP-2 (in rat serum) (rat, UniProt Q9JJS8 20-685); experiment: cell-based or functional assay
Sequence (Q9JJS8 20-685 limits assumed): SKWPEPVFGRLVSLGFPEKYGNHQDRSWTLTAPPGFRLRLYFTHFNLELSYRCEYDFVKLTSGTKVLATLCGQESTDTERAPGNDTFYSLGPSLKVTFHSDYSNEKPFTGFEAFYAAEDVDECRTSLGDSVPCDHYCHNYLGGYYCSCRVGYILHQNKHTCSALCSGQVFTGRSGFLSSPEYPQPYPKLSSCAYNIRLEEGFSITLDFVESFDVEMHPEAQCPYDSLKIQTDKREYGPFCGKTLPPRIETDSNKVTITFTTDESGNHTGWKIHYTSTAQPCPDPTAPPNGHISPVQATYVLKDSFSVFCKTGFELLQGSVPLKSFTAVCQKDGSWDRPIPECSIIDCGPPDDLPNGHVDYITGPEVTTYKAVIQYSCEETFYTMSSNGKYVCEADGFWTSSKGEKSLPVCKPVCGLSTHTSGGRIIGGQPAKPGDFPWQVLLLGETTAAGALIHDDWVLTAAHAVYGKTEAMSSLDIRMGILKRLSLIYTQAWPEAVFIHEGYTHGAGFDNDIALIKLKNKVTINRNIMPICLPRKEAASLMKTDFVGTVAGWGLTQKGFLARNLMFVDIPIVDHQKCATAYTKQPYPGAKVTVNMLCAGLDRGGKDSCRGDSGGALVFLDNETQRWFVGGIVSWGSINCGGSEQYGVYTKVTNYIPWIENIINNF
Where no end group is shown, it is not given here.
PROPERTY LABEL: IC50, lectin pathway C4 deposition, rat serum (nM)

>>> measurement("EVO2d (designed binder, not fully specified; cysteine pairing not given here, Modified TFPI-D2 Kunitz domain; made as m1) KPDFCFLEEDPGPCRALKRRYFYNNQTKQCERFKYGGCLGNMNNFETLEECKNICEDG")
70.9
>>> measurement("EVO212 (designed binder, not fully specified; ends and bridges not checked, Modified TFPI-D2 Kunitz domain; made as m1) KPDFCFLENDPGLCRALKRRYFYNNQTKQCERFGYGGCLGNMNNFVTLEECKNICEDG")
46.3
